Would you mind telling me the reported Papp at 300 min of each entry?
assay: Calu-3 permeability; assay type: in vitro ADME; conditions: human
Numbers only, in ×10⁻⁶ cm/s.

| MOLECULE | Papp at 300 min (×10⁻⁶ cm/s) |
| --- | --- |
| Cc1ccc(NC(=O)C(CC(C)C)C(=O)NO)cc1 (stereo not shown) | 9.8 |
| Cc1ccc(NC(=O)C(CC(C)C)n2ccnn2)cc1 (stereo not shown) | 17 |
| Cc1ccc(NC(=O)C(CC(C)C)S(=O)(=O)O)cc1 (stereo not shown) | 0.47 |

[ask] Need Papp at 300 min of Cc1ccc(NC(=O)C(CC(C)C)n2nccn2)cc1 (stereo not shown) , thanks.
[reply] 18

---

target: MMP-2 (Homo sapiens, UniProt P08253); construct: purchased AnaSpec (Fremont, CA, USA); test: MMP-2 inhibition assay; assay type: biochemical; settings: 100 μM; read-out: % inhibition MMP-2
Sequence (P08253 110-660): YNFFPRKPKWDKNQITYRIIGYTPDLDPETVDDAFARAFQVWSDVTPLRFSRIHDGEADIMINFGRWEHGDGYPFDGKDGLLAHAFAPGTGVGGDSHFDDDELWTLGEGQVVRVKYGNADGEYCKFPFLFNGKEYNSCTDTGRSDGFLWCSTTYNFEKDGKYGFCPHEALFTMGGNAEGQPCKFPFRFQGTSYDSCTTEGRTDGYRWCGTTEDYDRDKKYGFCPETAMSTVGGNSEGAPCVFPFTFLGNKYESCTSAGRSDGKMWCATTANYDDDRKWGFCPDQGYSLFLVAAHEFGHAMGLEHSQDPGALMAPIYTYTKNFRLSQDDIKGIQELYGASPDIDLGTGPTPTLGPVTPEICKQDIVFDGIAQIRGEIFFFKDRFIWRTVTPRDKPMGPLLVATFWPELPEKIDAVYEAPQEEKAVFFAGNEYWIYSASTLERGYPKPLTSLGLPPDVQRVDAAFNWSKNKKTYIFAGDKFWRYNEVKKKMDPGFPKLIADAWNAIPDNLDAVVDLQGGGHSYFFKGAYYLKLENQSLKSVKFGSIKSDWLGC
Can you tell me inhibition at 100 µM for the items I'm about to list?

| COMPOUND | MEASURED TARGET | OBSERVED RESULT |
| --- | --- | --- |
| Cc1ccc(NC(=O)C(CC(C)C)n2nccn2)cc1 (stereo not shown) | MMP-2 (Homo sapiens, UniProt P08253) | < 10% |
| Cc1ccc(NC(=O)C(CC(C)C)n2ccnn2)cc1 (stereo not shown) | MMP-2 (Homo sapiens, UniProt P08253) | < 10% |
| Cc1ccc(NC(=O)C(CC(C)C)C(=O)NO)cc1 (stereo not shown) | MMP-2 (Homo sapiens, UniProt P08253) | 26% |

[ask] For the compound Cc1ccc(NC(=O)C(CC(C)C)S(=O)(=O)O)cc1 (stereo not shown) , what inhibition at 100 µM is on record?
[reply] < 10%

---

assay: Metabolic stability in mouse liver S9 fraction; assay type: in vitro ADME
Please go through the items and note down their microsomal CLint at 1 μM.

Some solved cases for reference:
| COMPOUND | microsomal CLint at 1 μM |
| --- | --- |
| Cc1ccc(NC(=O)C(CC(C)C)P(=O)(O)O)cc1 (centres unmarked) [Compound 4a] | < 5.8 µL/min/mg |
| CC(C)CC(C(=O)Nc1ccc(C#N)cc1)P(=O)(O)O (centres unmarked) [Compound 4k] | < 5.8 µL/min/mg |
| CC(C)CC(C(=O)Nc1ccc(C(F)(F)F)cc1)P(=O)(O)O (centres unmarked) [Compound 4b] | < 5.8 µL/min/mg |

For the 5 compounds below, give their microsomal CLint at 1 μM values.
1. Cc1ccc(NC(=O)C(CC(C)C)n2nccn2)cc1 (centres unmarked) [Compound 3m]
2. Cc1ccc(NC(=O)C(CC(C)C)S(=O)(=O)O)cc1 (centres unmarked) [Compound 3i]
3. Cc1ccc(NC(=O)C(CC(C)C)n2ccnn2)cc1 (centres unmarked) [Compound 3l]
4. Cc1ccc(NC(=O)C(CC(C)C)C(=O)NO)cc1 (centres unmarked) [Compound 3g]
5. CC(C)CC(C(=O)Nc1ccc(F)cc1)P(=O)(O)O (centres unmarked) [Compound 4h]

[reply]
1: 356 µL/min/mg; 2: < 5.8 µL/min/mg; 3: 90 µL/min/mg; 4: 64 µL/min/mg; 5: < 5.8 µL/min/mg

---

For each of the compounds below, state its chromatographic logD.
assay: Lipophilicity determination (LogD7.4, HPLC-MS); format: physicochemical; conditions: pH 7.4, pH 7.4, chromatographic

| COMPOUND | chromatographic logD |
| --- | --- |
| Cc1ccc(NC(=O)C(CC(C)C)C(=O)NO)cc1 (stereo not drawn) | > 1.8 |
| Cc1ccc(NC(=O)C(CC(C)C)n2nccn2)cc1 (stereo not drawn) | > 1.8 |

[ask] Tell me the measured chromatographic logD of Cc1ccc(NC(=O)C(CC(C)C)n2ccnn2)cc1 (stereo not drawn) , please.
[reply] > 1.8

Recorded values, source paper PMC10755728.
